Values compiled from patent US20080058636A1.

Assignment: determine reported Human binding for the given binders.
Biological target: human collagen type I (acid soluble, extracted from placenta, Sigma C7774) (human) (UniProt P02452)
Sequence (P02452 162-1218 limits assumed, chain 1 of 2): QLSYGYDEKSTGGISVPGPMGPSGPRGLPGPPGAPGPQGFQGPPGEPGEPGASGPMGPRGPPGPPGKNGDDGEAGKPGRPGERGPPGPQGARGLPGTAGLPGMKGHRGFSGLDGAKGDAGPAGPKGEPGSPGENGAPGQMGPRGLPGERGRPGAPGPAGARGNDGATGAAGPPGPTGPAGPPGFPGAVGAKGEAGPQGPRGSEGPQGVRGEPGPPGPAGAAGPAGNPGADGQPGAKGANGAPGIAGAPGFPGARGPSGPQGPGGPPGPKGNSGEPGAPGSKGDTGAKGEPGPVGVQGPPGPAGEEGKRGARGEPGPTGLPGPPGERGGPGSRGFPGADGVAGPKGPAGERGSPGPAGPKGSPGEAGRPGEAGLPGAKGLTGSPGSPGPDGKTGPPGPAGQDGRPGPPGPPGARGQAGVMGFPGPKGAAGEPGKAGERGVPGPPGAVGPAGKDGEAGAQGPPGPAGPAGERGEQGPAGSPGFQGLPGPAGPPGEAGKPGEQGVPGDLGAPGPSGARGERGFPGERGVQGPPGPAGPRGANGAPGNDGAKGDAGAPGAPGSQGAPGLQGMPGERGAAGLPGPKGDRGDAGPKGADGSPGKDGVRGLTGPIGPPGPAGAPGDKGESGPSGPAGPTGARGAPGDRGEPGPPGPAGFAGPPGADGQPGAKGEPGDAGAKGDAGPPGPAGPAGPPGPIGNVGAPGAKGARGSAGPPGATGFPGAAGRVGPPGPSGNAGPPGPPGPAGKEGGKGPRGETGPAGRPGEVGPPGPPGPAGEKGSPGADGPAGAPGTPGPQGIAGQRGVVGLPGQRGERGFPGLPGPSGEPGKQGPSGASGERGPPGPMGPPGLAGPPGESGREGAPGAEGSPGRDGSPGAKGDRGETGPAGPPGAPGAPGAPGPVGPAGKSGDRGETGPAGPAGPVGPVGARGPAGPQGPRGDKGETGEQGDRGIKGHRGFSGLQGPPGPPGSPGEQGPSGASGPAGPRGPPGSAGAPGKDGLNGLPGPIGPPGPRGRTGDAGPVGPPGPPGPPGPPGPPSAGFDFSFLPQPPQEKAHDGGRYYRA
Sequence (P08123 80-1119 limits assumed, chain 2 of 2, further chain): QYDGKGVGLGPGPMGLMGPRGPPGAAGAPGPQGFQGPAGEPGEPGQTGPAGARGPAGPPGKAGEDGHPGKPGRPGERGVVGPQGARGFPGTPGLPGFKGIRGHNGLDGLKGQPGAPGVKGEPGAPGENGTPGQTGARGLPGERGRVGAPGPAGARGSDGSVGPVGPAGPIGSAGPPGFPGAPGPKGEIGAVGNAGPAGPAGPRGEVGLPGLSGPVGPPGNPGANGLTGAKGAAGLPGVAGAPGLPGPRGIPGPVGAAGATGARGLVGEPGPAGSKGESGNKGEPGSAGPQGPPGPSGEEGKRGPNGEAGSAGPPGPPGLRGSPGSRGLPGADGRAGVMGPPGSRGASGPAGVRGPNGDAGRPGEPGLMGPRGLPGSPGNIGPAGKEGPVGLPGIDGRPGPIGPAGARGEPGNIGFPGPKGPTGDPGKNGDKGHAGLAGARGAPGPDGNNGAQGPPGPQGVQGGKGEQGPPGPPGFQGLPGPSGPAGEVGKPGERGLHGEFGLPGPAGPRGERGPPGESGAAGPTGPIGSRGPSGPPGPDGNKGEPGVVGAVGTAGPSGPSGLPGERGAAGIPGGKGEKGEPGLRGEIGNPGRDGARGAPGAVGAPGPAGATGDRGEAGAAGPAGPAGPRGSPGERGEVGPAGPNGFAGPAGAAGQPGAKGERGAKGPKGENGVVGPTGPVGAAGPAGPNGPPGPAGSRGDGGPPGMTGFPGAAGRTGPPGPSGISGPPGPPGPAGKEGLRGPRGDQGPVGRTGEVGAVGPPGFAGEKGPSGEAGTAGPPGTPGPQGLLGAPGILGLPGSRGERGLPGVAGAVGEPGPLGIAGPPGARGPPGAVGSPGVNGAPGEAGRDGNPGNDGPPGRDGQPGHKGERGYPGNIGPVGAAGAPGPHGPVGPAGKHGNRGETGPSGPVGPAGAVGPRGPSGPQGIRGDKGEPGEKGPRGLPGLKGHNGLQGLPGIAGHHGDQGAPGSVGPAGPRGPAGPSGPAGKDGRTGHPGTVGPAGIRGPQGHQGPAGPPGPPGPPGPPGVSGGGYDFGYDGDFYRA
Assay: dried collagen assay, 5 uM each
Answers are plain numbers, in %.

Answered cases to consult:
GQWHCTTRFPKHYCLYG [Compound ID 958] ... 45
GKWHCYTYFPHHYCVYY [Compound ID 945] ... 83
GAWHCTTRFPHHYCLYG [Compound ID 857] ... 67

query: Could you share which Human binding value was measured for KKYWHCYTYFPHHYCVYG [Compound ID 1018] ?
result: 53
